The reported numbers originate from patent US12522594B2.

Kindly state log10 IC50 for each of the entries shown.
target: AHR (Homo sapiens, UniProt P35869); assay: In vitro assay 3: AHR-regulated CYP1A1 expression in human cell line (U937, qPCR, KA stimulation); type: cell-based; settings: U937 cells, 200 uM KA, 6 hours, CYP1A1 expression by qPCR; read-out: Assay 3: Hum CYP1A1 Antagonism IC50
Sequence (P35869 11-848): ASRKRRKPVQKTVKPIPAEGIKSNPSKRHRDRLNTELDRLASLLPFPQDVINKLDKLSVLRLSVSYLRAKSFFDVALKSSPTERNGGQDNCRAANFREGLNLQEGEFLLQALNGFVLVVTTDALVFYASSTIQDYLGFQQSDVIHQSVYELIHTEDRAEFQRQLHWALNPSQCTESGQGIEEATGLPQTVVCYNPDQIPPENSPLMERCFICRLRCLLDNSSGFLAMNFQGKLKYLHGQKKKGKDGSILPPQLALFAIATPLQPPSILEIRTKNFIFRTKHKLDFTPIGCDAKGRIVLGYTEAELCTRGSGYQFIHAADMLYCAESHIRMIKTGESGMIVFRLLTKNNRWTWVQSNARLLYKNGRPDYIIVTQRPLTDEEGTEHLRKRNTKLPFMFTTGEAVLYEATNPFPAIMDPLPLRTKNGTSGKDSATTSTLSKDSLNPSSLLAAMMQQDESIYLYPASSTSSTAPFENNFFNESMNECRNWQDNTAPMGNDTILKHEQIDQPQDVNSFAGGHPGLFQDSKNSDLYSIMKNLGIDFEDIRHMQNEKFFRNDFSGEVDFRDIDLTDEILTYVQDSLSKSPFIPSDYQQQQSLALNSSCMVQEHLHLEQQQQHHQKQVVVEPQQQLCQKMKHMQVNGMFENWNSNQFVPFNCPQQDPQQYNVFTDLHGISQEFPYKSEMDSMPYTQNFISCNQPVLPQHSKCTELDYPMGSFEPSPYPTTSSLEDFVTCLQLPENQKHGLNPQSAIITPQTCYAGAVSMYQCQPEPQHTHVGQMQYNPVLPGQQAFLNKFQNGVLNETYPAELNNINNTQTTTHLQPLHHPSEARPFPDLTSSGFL
Recall that a logarithmic scale is used here: each number is log10 of IC50 in µM.

Report value only: log10 IC50, AHR (Homo sapiens, UniProt P35869), O=C(NC[C@@H](O)CO)c1cc(-c2ccc(Cl)cc2)nn(-c2cccnc2)c1=O [Example 73]
-0.45

Report value only: log10 IC50, AHR (Homo sapiens, UniProt P35869), O=C(N[C@H]1COCC[C@H]1O)c1cc(-c2ccc(Cl)cc2)nn(-c2cccnc2)c1=O [Example 175]
-0.95

Report value only: log10 IC50, AHR (Homo sapiens, UniProt P35869), Cn1cc(-n2nc(-c3ccc(Cl)cc3)cc(C(=O)N[C@H]3CCC[C@@H]3O)c2=O)cn1 [Example 49]
-2.12

Report value only: log10 IC50, AHR (Homo sapiens, UniProt P35869), C[C@@H](CO)NC(=O)c1cc(-c2ccc(C(F)(F)F)cc2)nn(-c2cnn(C)c2)c1=O [Example 39]
-2.47

Report value only: log10 IC50, AHR (Homo sapiens, UniProt P35869), Cn1cc(-n2nc(-c3ccc(Cl)cc3)cc(C(=O)N[C@@H](C#N)CO)c2=O)cn1 [Example 227]
-1.94

Report value only: log10 IC50, AHR (Homo sapiens, UniProt P35869), Cn1cc(-n2nc(-c3ccc(Cl)cc3)cc(C(=O)NCC(O)C(F)(F)F)c2=O)cn1 (single isomer, unassigned; (+)) [Example 20]
-1.20

Report value only: log10 IC50, AHR (Homo sapiens, UniProt P35869), O=C(NC[C@H](O)C(F)F)c1cc(-c2ccc(OC(F)(F)F)cc2)nn(-c2cccnc2)c1=O [Example 295]
-1.05

Report value only: log10 IC50, AHR (Homo sapiens, UniProt P35869), O=C(N[C@H]1COCC[C@H]1O)c1cc(-c2ccc(OC(F)(F)F)cc2)nn(-c2cccnc2)c1=O [Example 176]
-1.41

Report value only: log10 IC50, AHR (Homo sapiens, UniProt P35869), Cn1cc(-n2nc(-c3ccc(C(F)(F)F)cc3)cc(C(=O)N[C@H]3CCC[C@@H]3O)c2=O)cn1 [Example 210]
-2.69

Report value only: log10 IC50, AHR (Homo sapiens, UniProt P35869), Cn1cc(-n2nc(-c3ccc(Cl)cc3)cc(C(=O)NCC(O)C(F)F)c2=O)cn1 (single isomer, unassigned; (-)) [Example 22]
-1.95

Report value only: log10 IC50, AHR (Homo sapiens, UniProt P35869), O=C(NC[C@H](O)C(F)(F)F)c1cc(-c2ccc(Cl)cc2)nn(-c2csc(Cl)c2)c1=O [Example 232]
-2.13

Report value only: log10 IC50, AHR (Homo sapiens, UniProt P35869), Cn1cc(-n2nc(-c3ccc(Cl)cc3)cc(C(=O)NCC(O)C(F)(F)F)c2=O)cn1 (single isomer, unassigned; (-)) [Example 19]
-2.19

Report value only: log10 IC50, AHR (Homo sapiens, UniProt P35869), O=C(NCC(O)C(F)(F)F)c1cc(-c2ccc(Cl)cc2)nn(-c2cccnc2)c1=O (racemic) [Example 78]
-2.32

Report value only: log10 IC50, AHR (Homo sapiens, UniProt P35869), CC(C)(O)CNC(=O)c1cc(-c2ccc(C(F)(F)F)cc2)nn(-c2cccnc2)c1=O [Example 115]
-1.96

Report value only: log10 IC50, AHR (Homo sapiens, UniProt P35869), O=C(N[C@H]1CCC[C@@H]1O)c1cc(-c2ccc(Cl)cc2)nn(-c2cccnc2)c1=O [Example 130]
-2.19
